# Tested on: P. falciparum 3D7 parasites
# ASSAY EXPLANATION: P. falciparum growth inhibition assay, 2-cycle (120 h treatment), delayed-death screen and dose-response
# Format: cell-based, Plasmodium falciparum
# CONDITION PARAMETERS: Plasmodium falciparum, 3D7; library screen at 2 μg/mL, 120 h, % growth, replicate 2; read-out: Pf_120h_%Growth_Rep2
// values below are reported activity at 2 µg/mL
Reply numerically in %, unit not repeated.

Would you please look over these solved cases?
COC1=C2C[C@@H](C)C[C@H](OC)[C@H](O)[C@@H](C)/C=C(\C)[C@H](OC(N)=O)[C@@H](OC)/C=C\C=C(/C)C(=O)NC(=CC1=O)C2=O = 11.8
CC[C@H]1OC(=O)[C@H](C)[C@@H](O[C@H]2C[C@@](C)(OC)[C@@H](O)[C@H](C)O2)[C@H](C)[C@@H](O[C@@H]2O[C@H](C)C[C@H](N(C)C)[C@H]2O)[C@](C)(O)C[C@@H](C)CN(C)[C@H](C)[C@@H](O)[C@]1(C)O [Azithromycin, reference compound] = 0.35

Entry `COc1cc(C)c(C(=O)Oc2cc(C)c(C(=O)O)c(O)c2)c(O)c1` ; assay system P. falciparum 3D7 parasites; activity at 2 µg/mL recorded at 94.9
